Listed next: entries and their corresponding TGI.
Test system: XF 498 CNS
Assay: NCI tumour cell line growth inhibition, 48 h
observation_type: TGI

[[record]]
compound = "O=C1C(Cl)C(c2cccc(O)c2)N1n1cnc2ccccc2c1=O (stereo not given)"
readout_value = "> 100 µM"

[[record]]
compound = "O=c1n(C2CCCCC2)c(=C(Cl)Cl)c(=C(Cl)Cl)n1C1CCCCC1"
readout_value = "> 100 µM"

[[record]]
compound = "CC(=O)OC1C(=O)C(O)C(C)OC1O[C@@H]1C[C@@]2(C)[C@@H]3CC=C4[C@@H](C[C@H](O)C(=O)C4(C)C)[C@]3(C)C(=O)C[C@]2(C)[C@H]1[C@@](C)(O)C(=O)/C=C/C(C)(C)O (stereo not given in full)"
readout_value = "0.64 µM"

[[record]]
compound = "C=C1[C@@H](C)[C@H]2[C@H](Cc3ccccc3)NC(=O)[C@]23OC(=O)/C=C/[C@H](O)CCC[C@@H](C)C/C=C/[C@H]3[C@@H]1O"
readout_value = "8.97 µM"

[[record]]
compound = "Clc1ccc(-n2nnc(C3=NCCN3)c2-c2ccccc2)cc1"
readout_value = "> 100 µM"

[[record]]
compound = "CCOC(=O)/C(C1=N[C@H](C(=O)OCC)CS1)=C(\\O)c1ccccc1"
readout_value = "> 100 µM"

[[record]]
compound = "O=C1C=C[C@@]23CC1C(O)C[C@H]2C=Cc1ccccc13 (stereo not given in full)"
readout_value = "> 100 µM"

[[record]]
compound = "O=S(=O)([O-])c1cccc2cccc(N=Cc3ccccc3[O-])c12.O=S(=O)([O-])c1cccc2cccc(N=Cc3ccccc3[O-])c12.[O]=[U]=[O]"
readout_value = "> 100 µM"

[[record]]
compound = "COC(=O)C1CC(C(=O)OC)c2nc3cc(C)ccc3nc21 (stereo not given)"
readout_value = "> 100 µM"

[[record]]
compound = "Clc1ccc(Cl)c2[s+]snc12"
readout_value = "> 100 µM"

[[record]]
compound = "Cc1ccc(NC(=O)CC2C(=O)Nc3ccccc3S2=O)cc1C (stereo not given)"
readout_value = "> 100 µM"

[[record]]
compound = "O=C(O)CNc1c2ccccc2nc2ccccc12"
readout_value = "> 100 µM"

[[record]]
compound = "CC(C)NCCNC(=O)c1ccccc1Nc1c(Cl)cccc1Cl"
readout_value = "11.4 µM"

[[record]]
compound = "C/C(O)=C(\\N=O)C(=O)NCCc1ccccc1"
readout_value = "> 31.6 µM"

[[record]]
compound = "CCOC(=O)CC(=O)Sc1ccccc1"
readout_value = "93.4 µM"


The reported measurements were obtained from PubChem BioAssay (NCI).
